Ref: PubChem BioAssay AID1996

log10 solubility kinetic listing for selected compounds.
conditions: buffer; pH 7.4; 200.0 µM
Transform log10 | Measure solubility kinetic | Unit µg/mL

Previously resolved entries follow.
# Compound, Attribute measured, Val
data = [
    ("CCN(CC(=O)Nc1c(F)cccc1F)C(=O)CCCc1c[nH]c2ccccc12", "log10 solubility kinetic", 0.87),
    ("CCOc1ccccc1NS(=O)(=O)c1ccc2[nH]c(=O)ccc2c1", "log10 solubility kinetic", 1.68),
    ("O=C(COC(=O)C1=COCCO1)NCc1ccc(F)cc1", "log10 solubility kinetic", 1.61),
    ("CC(C)(C)c1ccc(NC(=O)c2ccsc2)cc1", "log10 solubility kinetic", 0.04),
    ("Cc1cccc(OCCn2cnc(Cl)c2Cl)c1", "log10 solubility kinetic", 1.44),
    ("Cc1noc(C(=O)Nc2ccc(C#N)cc2)c1Cl", "log10 solubility kinetic", 0.20),
]

Provide one value: measured log10 solubility kinetic of "O=C(/C=C/c1ccccc1)Oc1ccccc1C(=S)N1CCOCC1"
1.28

Identify measured log10 solubility kinetic associated with "O=C(COC(=O)c1ccc(F)cc1Cl)NC1CCCCCCC1"
1.33

Find the measured log10 solubility kinetic of "Cn1c(=O)c2c(nc(Oc3ccccc3Cl)n2C)n(C)c1=O" and report it.
1.20

----------
Catalogue of solubility kinetic values
conditions: buffer; pH 7.4; 200.0 µM

# Molecule, solubility kinetic
rows = [
    ("CCOc1ccccc1C(=O)NC(C(=O)Nc1cccnc1)C(C)C (stereo unspecified)", "33.7 µg/mL"),
    ("CC1CC(C)CN(C(=O)COC(=O)c2ccc([N+](=O)[O-])o2)C1 (stereo unspecified)", "> 46.5 µg/mL"),
    ("COc1ccc(CCNC(=O)c2c(C)nc3ccccn23)cc1OC", "> 50.9 µg/mL"),
    ("Cc1ccc(C(=O)NC(C)CCc2ccccc2)cc1S(=O)(=O)N1CCOCC1 (stereo unspecified)", "5.6 µg/mL"),
    ("COc1cc(C(CN)CC(=O)O)ccc1O.Cl (stereo unspecified)", "> 39.3 µg/mL"),
    ("Cc1ccc(/C=C(\\C#N)C(=O)NC(C)C)o1", "> 32.7 µg/mL"),
    ("NC(=O)CCC(NC(=S)Nc1ccccc1)C(=O)O (stereo unspecified)", "39.3 µg/mL"),
    ("C[C@H]1O[C@@H](n2cc(F)c(=O)[nH]c2=O)[C@H](O)[C@@H]1O", "> 36.9 µg/mL"),
]

Note down solubility kinetic recorded for "Cc1ccc(-c2nc3ncccc3o2)cc1NC(=O)C(C)C"
25.3 µg/mL

Respond only with solubility kinetic recorded for "Cc1[nH]c2ccccc2c1SCC(=O)N1CCC(C)CC1"
> 45.4 µg/mL

Identify solubility kinetic associated with the molecule "Cc1ccc(S(=O)(=O)N2CCC(C(=O)Nc3cccnc3)CC2)cc1"
> 53.9 µg/mL

----------
settings: buffer; pH 7.4; 200.0 µM
The entries below are paired with their reported log10 of solubility kinetic.
Quick note: numbers are log10 of solubility kinetic, with µg/mL as the unit.

// solved cases for log10 of solubility kinetic follow
# Structure smiles, log10 of solubility kinetic
records = [
    ("O=C(NCCCNC(=O)c1cccnc1)c1ccc(Cl)cc1", 1.64),
    ("CN(CCc1ccccn1)C(=O)Nc1cccc(Cl)c1", 1.59),
    ("O=c1cc(COc2ccccc2[N+](=O)[O-])nc2sccn12", 0.43),
    ("CC1CCN(c2nc(N(C)c3ccccc3)nc(N)c2[N+](=O)[O-])CC1", 0.66),
    ("COc1ccc(S(=O)(=O)Nc2ccncc2)c(C)c1C", 0.66),
]

Provide one value: measured log10 of solubility kinetic of "COc1cc(OC)c(C(=O)NC23CC4CC(CC(C4)C2)C3)cc1OC"
0.85

----------
conditions: buffer; pH 7.4; 200.0 µM
Attribute measured: log10(solubility kinetic) (log10 of the value in µg/mL)
Recorded solubility kinetic (log10, µg/mL)

# Compound, log10(solubility kinetic)
measured = [
    ("COC(=O)c1ccc(N2C(=O)C3C4C=CC(CC4)C3C2=O)cc1 (centres undefined)", 1.30),
    ("NS(=O)(=O)c1ccc(CNC(=O)C(c2ccccc2)c2ccccc2)cc1", 1.75),
    ("COC(=O)c1[nH]c2c(c1C)C(=O)CC(c1ccc(OC)cc1)C2 (centres undefined)", 0.43),
    ("CC1CN(C(=O)COC(=O)c2ccc(Cl)nc2)CC(C)O1 (centres undefined)", 1.63),
    ("COC(=O)/C=C1\\SC(=NC(=O)c2ccc(OC)cc2)NC1=O", 1.08),
]

Supply reported log10(solubility kinetic) belonging to this compound: "Cc1[nH]c2ccccc2c1C(=O)C(=O)NCCOc1ccccc1"
0.34

Give the reported log10(solubility kinetic) for this compound. "COc1ccc2cc3c(nc2c1)OCC3"
1.40

Please list log10(solubility kinetic) recorded for the compound "Nc1nc(Nc2ccccc2F)nc(N2CCCC2)c1[N+](=O)[O-]"
1.41

Answer with the recorded log10(solubility kinetic) of "CN(C)/C(=N\S(=O)(=O)c1ccc(Br)cc1)c1ccccc1" only.
1.70

----------
conditions: buffer; pH 7.4; 200.0 µM
Measured solubility kinetic values are reported for all entries that follow.

Past entries and their recorded results:
# Molecule, solubility kinetic
data = [
    ("CC12CN(C(=O)c3cccc([N+](=O)[O-])c3)C3(C#N)CC1CCC23C (centres undefined)", "0.0453 mg/mL"),
    ("COc1cc(CN2CCc3c([nH]c4ccccc34)C2)cc(OC)c1", "0.026 mg/mL"),
    ("Cc1cc(C)cc(NC(=O)Nc2ccccc2N2CCCCC2)c1", "0.0255 mg/mL"),
    ("COc1ccc2c(c1)CCc1c-2nc2ccccc2c1N1CCOCC1", "0.0055 mg/mL"),
    ("CCOc1ccc(N2CC(C(=O)N3CCCCC3)CC2=O)cc1 (centres undefined)", "0.0464 mg/mL"),
    ("COCCNc1oc(-c2ccccc2Cl)nc1S(=O)(=O)c1ccc(C)cc1", "0.0441 mg/mL"),
    ("CCOC(=O)C1CCCN(C(=O)COc2ccc(S(=O)(=O)N3CCOCC3)cc2)C1 (centres undefined)", "> 0.0661 mg/mL"),
    ("OCCN=C1CCCc2c1[nH]c1ccc(Cl)cc21", "0.0123 mg/mL"),
]

Give the reported value of solubility kinetic for this record: "COc1ccc(-n2c(CNCCc3ccc(C)cc3)nc3ccccc3c2=O)cc1"
0.0452 mg/mL

Tell me its solubility kinetic given "O=S(=O)(Nc1ccccc1)c1ccc2c(c1)CCO2" as the entry.
0.0377 mg/mL

Return the recorded solubility kinetic value; entry: "CC(C)N(Cc1ccccc1)C(=S)Nc1cccnc1"
> 0.0428 mg/mL

Write down solubility kinetic measured for item "O=C(Nc1ccc2ccccc2n1)c1ccccc1Br"
0.0046 mg/mL

Please look at this molecule and report its solubility kinetic: "CCC(C)(C)c1ccc(Oc2ccc(N)cc2)cc1"
0.0042 mg/mL

Give the value of solubility kinetic reported for the following: O=[N+]([O-])c1ccccc1/C=C/CN1CCCC(CO)C1 (centres undefined)
0.0332 mg/mL

Consider the molecule Cl.O=S1(=O)CCC(NC2CCCC2)C1 (centres undefined) and give its recorded solubility kinetic.
> 0.036 mg/mL

Let me know recorded solubility kinetic for "O=c1c2ccccc2ncn1-c1ccc([N+](=O)[O-])cc1[N+](=O)[O-]" , thanks.
0.0027 mg/mL

Check the records and state solubility kinetic for "O=C(Cc1ccsc1)NCC(=O)Nc1ccccc1Br"
> 0.053 mg/mL

Report measured solubility kinetic; entry is "CC(=O)c1sc(NCc2ccc(C)cc2)nc1C"
0.0386 mg/mL

Specify measured solubility kinetic for "O=C(COc1ccc(Cl)cc1Br)OCC(=O)c1ccc[nH]1" .
0.006 mg/mL

Give the reported value of solubility kinetic for this record: O=C(NCc1ccccc1Cl)C1CC(=O)N(Cc2ccccc2)C1 (centres undefined)
> 0.0514 mg/mL

----------
conditions: buffer; pH 7.4; 200.0 µM
Examples of molecules with documented solubility kinetic follow.

Reference set (4 entries):
# Molecule, Val
data = [
    ("COc1ccc(NC(=O)COC(=O)CCSc2ccccc2)cc1OC", "55.5 µg/mL"),
    ("CCN1CCN(c2ccc(S(=O)(=O)N3CCOCC3)cc2NC(=O)c2cccc([N+](=O)[O-])c2)CC1", "> 75.5 µg/mL"),
    ("COc1ccc(C(=O)OCC(=O)NCCc2ccc(F)cc2)cc1S(=O)(=O)N1CCOCC1", "> 72.1 µg/mL"),
    ("O=C(NCC1CCCO1)c1cc2c(=O)[nH]c3ccccc3c2s1 (stereo not given)", "2.6 µg/mL"),
]

# evaluate next
Give solubility kinetic for "CC(C)c1ccc(NC(=S)NNC(=O)c2cccnc2)cc1"
> 47.2 µg/mL
